Tested on: LOX IMVI melanoma
test: NCI tumour cell line growth inhibition, 48 h; in the data active = GI50 below about 0.43 µM; inactive = the rest
Your answer must be one of the following: active, inactive

Outcome? CN(C)c1ccc(/C=C\c2ccnc3ccccc23)cc1 inactive

Which result was noted for this compound in the test: CCN(CC)c1ccc(/C=C/C(=O)c2ccc(Nc3nc(Nc4ccccc4)nc(Nc4ccccc4)n3)cc2)cc1 inactive

Which outcome did this test record for the compound COc1cc2oc(-c3cccc(C(=O)Nc4ccc(Cl)cc4)c3)cc(=O)c2c(OC)c1OC ? active

---

Here, each record is paired with measured TGI data.
Test system: NCI-H226 lung
test: NCI tumour cell line growth inhibition, 48 h
Numbers only; they are read as µM.

Examples from the recorded data:
Clc1nccc2c(-c3csc(-c4c[nH]c5ccc(Br)cc45)n3)c[nH]c12	13.8
CC(C)(C)c1cc(C(=O)Nc2ccccc2C(=O)NCCN)cc(C(C)(C)C)c1	3.74
COc1cnc2c(c1)C(=O)c1c-2n(CCCNC2=NCCS2)c(=O)c2cc(F)ccc12	1.66

Recorded TGI of CC1=NN=C(C)C1N=Nc1ccc2nc(C)[nH]c2c1 , please. 34.8

Data provenance: PubChem BioAssay (NCI)
